Below is a list of entries, each paired with its recorded speed of sound value.
conditions: 303.15 K; 101.33 kPa; Liquid; Sing-around technique in a fixed-path interferometer
Return type: number; implicit unit m/s.

Use the examples below as a reference point.
CCCCn1cc[n+](C)c1.F[B-](F)(F)F [1-butyl-3-methylimidazolium tetrafluoroborate]; 1553.6
CCCCn1cc[n+](C)c1.COS(=O)(=O)[O-] [1-butyl-3-methylimidazolium methyl sulfate]; 1644.6
CCCC[n+]1ccn(C)c1.O=S(=O)([N-]S(=O)(=O)C(F)(F)F)C(F)(F)F; 1216.3

Continue with the next compound.
Query block: Consider the compound CC(O)CO (centres undefined) and give its recorded speed of sound.
Result block: 1493.3

Where these numbers come from: the NIST ThermoML archive (doi:10.1016/j.fluid.2015.12.007)
